# measuredOn: hT1R2/hT1R3 sweet receptor expressed in an HEK293 cell line (Homo sapiens, UniProt Q7RTX0+Q8TE23)
# Construct: expressed in transfected cells; host or cells: HEK293 derivative, clone S-9
# Sequence (Q8TE23 20-839): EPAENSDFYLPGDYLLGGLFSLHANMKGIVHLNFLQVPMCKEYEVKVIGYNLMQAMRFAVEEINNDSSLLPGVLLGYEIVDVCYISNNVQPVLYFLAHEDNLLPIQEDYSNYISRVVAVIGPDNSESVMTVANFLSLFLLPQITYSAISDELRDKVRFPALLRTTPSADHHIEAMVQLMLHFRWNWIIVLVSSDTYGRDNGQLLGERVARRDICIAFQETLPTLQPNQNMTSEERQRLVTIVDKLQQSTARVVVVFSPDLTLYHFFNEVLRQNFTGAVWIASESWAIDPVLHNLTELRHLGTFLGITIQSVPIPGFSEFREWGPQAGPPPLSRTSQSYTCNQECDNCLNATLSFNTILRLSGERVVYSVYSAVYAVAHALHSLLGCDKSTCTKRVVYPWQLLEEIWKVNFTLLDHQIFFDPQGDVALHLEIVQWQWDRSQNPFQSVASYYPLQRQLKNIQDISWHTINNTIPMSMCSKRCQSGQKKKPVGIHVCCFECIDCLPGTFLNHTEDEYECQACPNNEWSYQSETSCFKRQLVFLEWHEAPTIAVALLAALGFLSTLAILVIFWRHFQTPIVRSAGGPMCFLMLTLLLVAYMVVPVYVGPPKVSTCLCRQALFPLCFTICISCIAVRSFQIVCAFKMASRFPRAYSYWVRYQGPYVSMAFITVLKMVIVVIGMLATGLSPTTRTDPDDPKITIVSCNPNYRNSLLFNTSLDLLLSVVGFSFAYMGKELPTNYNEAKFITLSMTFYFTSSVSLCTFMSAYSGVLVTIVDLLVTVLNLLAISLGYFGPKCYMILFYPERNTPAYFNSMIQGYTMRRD
# Sequence (Q7RTX0 21-852): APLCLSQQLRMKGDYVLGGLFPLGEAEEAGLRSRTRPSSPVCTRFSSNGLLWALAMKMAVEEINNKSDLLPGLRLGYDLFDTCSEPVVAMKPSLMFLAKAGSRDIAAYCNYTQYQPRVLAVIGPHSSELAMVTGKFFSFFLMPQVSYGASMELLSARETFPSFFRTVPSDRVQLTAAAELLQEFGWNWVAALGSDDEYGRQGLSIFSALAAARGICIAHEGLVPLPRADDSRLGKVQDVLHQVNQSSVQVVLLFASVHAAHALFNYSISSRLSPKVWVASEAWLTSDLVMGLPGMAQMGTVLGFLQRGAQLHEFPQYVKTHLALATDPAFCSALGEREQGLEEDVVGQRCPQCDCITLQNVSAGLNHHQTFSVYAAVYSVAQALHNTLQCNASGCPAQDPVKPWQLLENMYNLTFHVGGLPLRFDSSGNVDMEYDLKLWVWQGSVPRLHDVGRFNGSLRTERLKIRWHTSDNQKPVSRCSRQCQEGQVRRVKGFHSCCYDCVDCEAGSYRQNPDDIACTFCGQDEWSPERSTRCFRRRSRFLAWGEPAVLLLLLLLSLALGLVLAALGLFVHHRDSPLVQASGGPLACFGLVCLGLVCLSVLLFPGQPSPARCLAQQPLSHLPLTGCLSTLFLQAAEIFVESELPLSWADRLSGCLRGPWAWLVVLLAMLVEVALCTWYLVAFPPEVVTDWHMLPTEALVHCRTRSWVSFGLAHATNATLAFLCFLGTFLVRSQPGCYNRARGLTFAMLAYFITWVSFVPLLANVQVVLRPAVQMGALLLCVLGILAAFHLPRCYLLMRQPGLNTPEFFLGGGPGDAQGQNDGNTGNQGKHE
# procedureSummary: In vitro hT1R2/hT1R3 sweet taste receptor activation assay (FLIPR, dose response)
# Assay type: cell-based
# conditionDescription: read-out: Sweet EC50
The label is y for EC50 below 2000 nM and n for EC50 equal to or exceeding 2000 nM.

QUERY: Strictly below 2000 nM in EC50? CC(C)Oc1ccc(NC(=S)NCc2ccno2)cc1 [Example B30]
RESULT: n

QUERY: I wonder whether COC(=O)c1ccc(NC(=S)NCc2cccs2)cc1 [Example B29] has EC50 below 2000 nM. Can you tell?
RESULT: n

QUERY: # TODO verify EC50 < 2000 nM strictly for this molecule: COc1cc(OC)c(CNC(=S)Nc2ccc(OC(C)C)cc2)c(OC)c1 [Example B1]
RESULT: y

QUERY: Consider the molecule Cc1cc(C)c(S(=O)(=O)NCc2ccncc2)c(C)c1 [Example B43] . Is its EC50 strictly less than 2000 nM?
RESULT: y

QUERY: Does CC(C)COc1ccc(NC(=S)NCc2ccc[nH]2)cc1 [Example B33] have EC50 strictly under 2000 nM?
RESULT: n

QUERY: # strict comparison: is reported EC50 < 2000 nM? input = COc1ccc(CNC(=S)NC(=O)c2ccccc2Cl)cc1 [Example B9]
RESULT: n

QUERY: Confirm or reject: EC50 of CC(C)Oc1ccc(NC(=S)NCc2ccncc2)cc1 [Example B41] lies strictly below 2000 nM
RESULT: n

QUERY: Is EC50 strictly under 2000 nM for the entry S=C(NCc1ccc[nH]1)Nc1ccc(SC2CC2)cc1 [Example B18] ?
RESULT: y

QUERY: Please determine if C=CCOc1ccc(NC(=S)NCc2ccc[nH]2)cc1 [Example B14] is below 2000 nM in terms of EC50.
RESULT: y

QUERY: Just wondering, is EC50 of S=C(NCc1cccs1)Nc1ccc(-n2cccn2)cc1 [Example B26] below 2000 nM?
RESULT: y

###

# measuredOn: hT1R2/hT1R3 sweet receptor expressed in an HEK293 cell line (Homo sapiens, UniProt Q7RTX0+Q8TE23)
# Construct: expressed in transfected cells; host or cells: HEK293 derivative, clone S-9
# procedureSummary: In vitro hT1R2/hT1R3 sweet taste receptor activation assay (FLIPR, dose response)
# Assay type: cell-based
# conditionDescription: read-out: EC50 for activation of a hT1R2/hT1R3 sweet receptor
readoutKind: EC50 (nM)
Value expressed in nM; do not type the unit.

QUERY: What value of EC50 has been reported for the following molecule? CC(C)Oc1ccc(NC(=S)NCc2ccoc2)cc1
RESULT: 230

QUERY: Which EC50 reading was recorded for the molecule COc1ccc(CNc2ccccc2F)cc1O ?
RESULT: 2410

QUERY: Suppose we examine the molecule CC(C)Oc1ccc(NC(=S)NCc2ccco2)cc1 ; what EC50 value has been reported?
RESULT: 550

QUERY: Give its EC50 value. Item: CCOc1ccc(NC(=S)NCc2ccco2)cc1
RESULT: 1700

QUERY: Entry CC(C)Oc1ccc(NC(=S)NCc2ccsc2)cc1 : reported EC50 = ?
RESULT: 150

QUERY: Field request: EC50 | item: CC(C)Oc1ccc(NC(=S)NCc2cccs2)cc1
RESULT: 120
